Task for the reader: assign each of the following variants its reported folding stability dG.
B1: 1ZHC (parent)
chain: HEFRDEISVLKANNPHFDKIFEKHNQLDDDIKTAEQQNASDAEVSHMKKQKLKLKDEIHSMIIEYREK

- Variants of: B1
- Assay Details: folding stability dG (cDNA display proteolysis); higher = more stable
- Condition Description: PBS, room temperature
Numbers only, in kcal/mol.

* HEFRDEISVLKANNPHFDKIFEKHNQLDDDIKTAEQQNASDAEVSHMKKQKLKLKDEIHSMIIQYREK [E64Q] | 0.969
* HEFRDEISVLKANNPHFDKIFEKHNQLDDDIKTAEQQNASDAEVSHMKKQKLKLVDEIHSMIIEYREK [K55V] | 0.758
* HEFRDEISFLKANNPHFDKIFEKHNQLDDDIKTAEQQNASDAEVSHMKKQKLKLKDEIHSMIIEYREK [V9F] | 2.05

# batch size: 8; output folding stability dG per entry
1. HEFRDEISVLKANNPHFDKIFEKHNQLDDDIKTAEVQNASDAEVSHMKKQKLKLKDEIHSMIIEYREK [Q36V]
2. HEFRDEISVLKANNPHFDKIFEKHNQLDDDIKTAEQQNASDAEVSHMKKQKLKLKDEIHSMIICYREK [E64C]
3. HEFRIEISVLKANNPHFDKIFEKHNQLDDDIKTAEQQNASDAEVSHMKKQKLKLKDEIHSMIIEYREK [D5I]
4. HEFRDEISVLKANNPHFDKIFEKHNQLDDDIKTAVQQNASDAEVSHMKKQKLKLKDEIHSMIIEYREK [E35V]
5. HEFRDLISVLKANNPHFDKIFEKHNQLDDDIKTAEQQNASDAEVSHMKKQKLKLKDEIHSMIIEYREK [E6L]
6. HEFRDEISVLKANNPHFDKIFEKHNQLDDDIKTAEQQAASDAEVSHMKKQKLKLKDEIHSMIIEYREK [N38A]
7. HEFRDEISVLKANNPHFDKIFEKHNQLDDDIKTAEQQNASDIEVSHMKKQKLKLKDEIHSMIIEYREK [A42I]
8. HEFRDEISVLKANNPHFDKIFEKHNQLDDDIKTAEQQNASDAEVSHMKKQKLKLKDEIHVMIIEYREK [S60V]

[0.511, 0.731, 1.04, 0.864, 1.76, 0.467, 0.572, 0.267]
